# Protocol description: cytotoxicity in HPDE-C7 cells, cell-based, fluorescence, HTS (AID 430);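 note: cells exposed to compound for 48 hours before viability readout; 0% = vehicle and 100% = reference cytotoxic drug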
# Protocol conditions: HPDE-C7 pancreatic duct cells viability, at 10 µM, hits give high values
In all, about 63,000 compounds went through this assay and about 1,100 (1.7%) were called active. Shown is part of a subset that was picked to be rich in actives. Results with a measured potency or affinity are listed apart.
Below: a set of entries, each annotated with reported cytotoxicity.
Measured metric: cytotoxicity (%)

{"Molecule": "Cc1cccc(OCCCCCNCCO)c1", "Measured metric": "cytotoxicity", "Obs value": 9.6}
{"Molecule": "COc1ccccc1-c1nc(-c2ccncc2)no1", "Measured metric": "cytotoxicity", "Obs value": 2.1}
{"Molecule": "CC1CCN(S(=O)(=O)c2ccc3[nH]c(=O)c(=O)[nH]c3c2)CC1", "Measured metric": "cytotoxicity", "Obs value": -9}
{"Molecule": "Cc1cc(C)c2c(=O)n(CC(=O)NCCCN3CCOCC3)sc2n1", "Measured metric": "cytotoxicity", "Obs value": 6.4}
{"Molecule": "CC1CN(c2nc3ccccn3c(=O)c2/C=C(\\C#N)S(=O)(=O)c2ccccc2)CC(C)O1 (stereo unspecified)", "Measured metric": "cytotoxicity", "Obs value": -12.3}
{"Molecule": "COc1ccc(NC(=O)CSc2nc3ccccc3c(=O)n2-c2ccc3c(c2)OCO3)c(OC)c1", "Measured metric": "cytotoxicity", "Obs value": 33.6}
{"Molecule": "O=C(O)c1ccc(Cl)c(S(=O)(=O)NCc2ccco2)c1", "Measured metric": "cytotoxicity", "Obs value": -12.1}
{"Molecule": "c1ccc2[nH]c(-c3ccnc4ccccc34)nc2c1", "Measured metric": "cytotoxicity", "Obs value": 3}
{"Molecule": "O=C(CN(C1CCCCC1)S(=O)(=O)c1ccc(Cl)cc1)NCc1ccncc1", "Measured metric": "cytotoxicity", "Obs value": -8.9}
{"Molecule": "O=C(CCNC(=O)Cn1ccc2ccccc2c1=O)NCCCN1CCN(c2ccccc2F)CC1", "Measured metric": "cytotoxicity", "Obs value": -10.7}
{"Molecule": "CCN(CCO)C(=O)C12CCC(C)(C(=O)C1)C2(C)C (stereo unspecified)", "Measured metric": "cytotoxicity", "Obs value": 5.2}

* * *

# Protocol description: cytotoxicity in HPDE-C7 cells, cell-based, fluorescence, HTS (AID 430)
# Protocol conditions: HPDE-C7 pancreatic duct cells viability, at 10 µM, hits give high values
In all, about 63,000 compounds went through this assay and about 1,100 (1.7%) were called active. The sample as a whole holds a higher share of actives than the screen did. Measured potencies and affinities stand elsewhere.
Measured metric: cytotoxicity (%)

{"Compound": "CC[C@H](C)C(=O)O[C@H]1C[C@@H](C)C=C2C=C[C@H](C)[C@H](CC[C@@H]3C[C@@H](O)CC(=O)O3)[C@H]21", "Value units": "%", "Obs value": 57.6}
{"Compound": "O=C(c1ccco1)N1CCN(S(=O)(=O)c2cccs2)CC1", "Value units": "%", "Obs value": -11.8}
{"Compound": "Cc1cc(C)n(C(=O)CNC(=O)COc2ccccc2)n1", "Value units": "%", "Obs value": -2.7}
{"Compound": "Cc1noc(C)c1COC(=O)CCN1c2ccccc2Sc2ccccc21", "Value units": "%", "Obs value": -8}
{"Compound": "CCOc1cccc(CN2CCN(c3cccc(C(F)(F)F)c3)CC2)c1O", "Value units": "%", "Obs value": -3.2}
{"Compound": "Cc1cc(C(=O)OCC(=O)N2CCN(c3ccccc3)CC2)c2ccccc2n1", "Value units": "%", "Obs value": -8.3}
{"Compound": "C=C1[C@@H](C)C2[C@H](Cc3ccccc3)NC(=O)[C@]23OC(=O)CC[C@H](O)CCC[C@H](C)C/C=C/[C@H]3[C@@H]1O (stereo not given in full)", "Value units": "%", "Obs value": 67.8}
{"Compound": "O=C(Cn1cccc1)Nc1ccc(OC(F)(F)F)cc1", "Value units": "%", "Obs value": -1.8}
{"Compound": "COc1ccc(C2(O)CCN(Cc3nnnn3Cc3ccc(C)cc3)CC2)cc1", "Value units": "%", "Obs value": -4.4}
{"Compound": "O=C1CC(O)(C(F)(F)F)Oc2c1ccc1ccccc21 (stereo not given)", "Value units": "%", "Obs value": 82.3}

* * *

Below: a set of entries, each annotated with reported cytotoxicity.
# Protocol description: cytotoxicity in HPDE-C7 cells, cell-based, fluorescence, HTS (AID 430);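 note: cells exposed to compound for 48 hours before viability readout; 0% = vehicle and 100% = reference cytotoxic drug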
# Protocol conditions: HPDE-C7 pancreatic duct cells viability, at 10 µM, hits give high values
Hit rate of the full screen: of about 63,000 compounds, about 1,100 (1.7%) were called active. This is one part of a sample in which actives are shown more often than they occur. Potency and affinity values are given separately.

{"Molecule": "COCCN1C=C(C(=O)OC)C(c2ccc(OC)c(OC)c2)C(C(=O)OC)=C1", "Value units": "%", "cytotoxicity": -14.4}
{"Molecule": "Cc1ccc(CC2SC(=O)NC2=O)cc1Cl (stereo not given)", "Value units": "%", "cytotoxicity": -2.2}
{"Molecule": "COc1ccc(C(=O)Oc2c(CN3CCOCC3)cc(Cl)c3cccnc23)cc1OC", "Value units": "%", "cytotoxicity": 7.4}
{"Molecule": "COc1ccc(CNC(=O)C2CCCN(S(=O)(=O)c3cnc[nH]3)C2)cc1 (stereo not given)", "Value units": "%", "cytotoxicity": -4.6}
{"Molecule": "COc1cc(C(=O)Oc2c(CN3CCOCC3)cc(Cl)c3cccnc23)cc(OC)c1OC", "Value units": "%", "cytotoxicity": 29}

* * *

# Protocol description: cytotoxicity in HPDE-C7 cells, cell-based, fluorescence, HTS (AID 430);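 note: cells exposed to compound for 48 hours before viability readout; 0% = vehicle and 100% = reference cytotoxic drug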
# Protocol conditions: HPDE-C7 pancreatic duct cells viability, at 10 µM, hits give high values
Among all 63,000 compounds or so, about 1,100 (1.7%) were called active. Many of the other results were omitted from the sample, so actives are more common in it than they were. Potency and affinity values are given separately.
Below: a set of entries, each annotated with reported cytotoxicity.

{"Compound": "CCS(=O)(=O)NCCc1csc(-c2ccccc2)n1", "cytotoxicity, %": -4.2}
{"Compound": "CCc1c(C(=O)Nc2ccc(S(=O)(=O)N3CCOCC3)cc2)csc1C", "cytotoxicity, %": 11}
{"Compound": "O=C(Nc1ccc2c(c1)OCO2)C(c1ccc(Cl)cc1)N1CCC2(CC1)OCCO2 (stereo unspecified)", "cytotoxicity, %": 4.2}
{"Compound": "O=C1SC(SCc2ccccc2)=N/C1=C\\c1ccco1", "cytotoxicity, %": 2.6}
{"Compound": "COc1ccc(NC(=O)C2CCCN(c3c4c(nc5ncnn35)CCC4)C2)cc1 (stereo unspecified)", "cytotoxicity, %": -37.1}
{"Compound": "CC(=O)c1c(C)nc(-c2ccc3c(c2)OCO3)n1O", "cytotoxicity, %": -6.2}

* * *

# Protocol description: cytotoxicity in HPDE-C7 cells, cell-based, fluorescence, HTS (AID 430);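 note: cells exposed to compound for 48 hours before viability readout; 0% = vehicle and 100% = reference cytotoxic drug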
# Protocol conditions: HPDE-C7 pancreatic duct cells viability, at 10 µM
Among all 63,000 compounds or so, about 1,100 (1.7%) were called active. Rule as the data show it: active = cytotoxicity above about 50%; inactive = the rest. For the sample, actives were picked, then their nearest neighbours and some compounds at random. Entries with a potency or affinity are not part of this list.
Classes used: active, inactive

{"Compound": "Cc1cccc(Cn2cnc3c(nnn3Cc3ccc(F)cc3)c2=O)c1", "Label class": "inactive"}
{"Compound": "CCCN(C(=O)CSc1nnc(-c2ccoc2C)n1N)C1CCS(=O)(=O)C1 (stereo unspecified)", "Label class": "inactive"}
{"Compound": "O=C(CCN1CCc2ccccc21)c1ccc2c(c1)OCCO2", "Label class": "inactive"}
{"Compound": "O=C(CCCN1CCOCC1)c1ccc2c(c1)OCCO2", "Label class": "inactive"}
{"Compound": "CNc1ccccc1-c1nc2ccccc2n(C)c1=O", "Label class": "active"}
{"Compound": "Cc1nn(CCCC(=O)N2CCc3ccccc3C2)c(=O)c2cc3sccc3n12", "Label class": "inactive"}
